Each item that follows carries a reported Functional IC50, C3b deposition, non-human primate serum Exp #2.
TARGET_UNDER_TEST: African Green monkey MASP-2 (in African Green monkey serum) (African Green monkey)
ASSAY_EXPLANATION: cell-based or functional assay
ASSAY_ENDPOINT: Functional IC50, C3b deposition, non-human primate serum Exp #2 (µM)

| BINDER | NUMBER |
| --- | --- |
| scFv mother clone 17D20 (scFv, also called 17D20 (17P10); 17D20mc) scFv: QVTLKESGPVLVKPTETLTLTCTVSGFSLSRGKMGVSWIRQPPGKALEWLAHIFSSDEKSYRTSLKSRLTISKDTSKNQVVLTMTNMDPVDTATYYCARIRAGGIDYWGQGTLVTVSSKLSGSASAPKLEEGEFSEARVQPVLTQPPSVSVSPGQTASITCSGDKLGDKFAYWYQQKPGHSPVLVIYQDNKRPSGIPGRFSGSNSGNTATLTISGTQAMDEADYYCQAWDSSTAVFGTGTKVTVLAAAGSEQKLISEEDLNSHHHHHH | 0.0718 |
| scFv mother clone 3F22 (scFv) scFv: QVQLQQSGPGLVKPSQTLSLTCAISGDSVSSNSAAWNWIRQSPSRGLEWLGRTYYRSKWYNDYAVSVKSRITINPDTSKNQFSLQLNSVTPEDTAVYYCARDPFGVPFDIWGQGTMVTVSSKLSGSASAPKLEEGEFSEARVSYVLTQPPSVSVAPGQTARVTCGGNNIRSKNVHWYQQKPGQAPVLVVYDDTDRPSGIPERFSGSNSGNTATLTVSRVEAGDEADYYCQVWDTTTDHVVFGGGTKLTVLAAAGSEQKLISEEDLNSHHHHHH | 0.173 |
